Biological target: 4'-phosphopantetheinyl transferase ffp (Bacillus subtilis)
Test: qHTS Assay for Inhibitors of Bacillus subtilis Sfp phosphopantetheinyl transferase (PPTase);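 note: the enzyme is Sfp with the accession as filed and its product quenches rhodamine fluorescence; 0% = enzyme reaction without inhibitor and -100% = no enzyme wells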
Details: Biochemical Sfp PPTase activity
Out of some 310,000 compounds screened, about 11,000 (3.5%) were called active. Inconclusive results (about 4%) are left out. The entries come from a sample that favours actives as a whole.
QUANTITY MEASURED: largest response in the series, negative = inhibition (%)

{"COMPOUND": "CC(=O)Nc1ccc(N2C(=O)CC(Sc3nccc(C)n3)C2=O)cc1 (stereo unspecified)", "OBSERVED VALUE": 11.7}
{"COMPOUND": "Cc1cccc(C)c1NC(=O)C1CCCN1C(=O)OC(C)(C)C (stereo unspecified)", "OBSERVED VALUE": 0.244}
{"COMPOUND": "CCOC(=O)CC1=CC(=O)Nc2ccccc2N1", "OBSERVED VALUE": -6.73}
{"COMPOUND": "CCc1ccccc1N(CC(=O)NCC1CCCO1)C(=O)CCC(=O)Nc1nccs1 (stereo unspecified)", "OBSERVED VALUE": 11.3}
{"COMPOUND": "CCC(=O)Nc1nc(C)c(C(=O)Nc2cccc(Cl)c2)s1", "OBSERVED VALUE": 8.26}
{"COMPOUND": "Cc1cc([N+](=O)[O-])c(N2CCC[C@@H]2C(=O)O)c([N+](=O)[O-])c1", "OBSERVED VALUE": 0.854}
{"COMPOUND": "S=c1ccc2ccccc2[nH]1", "OBSERVED VALUE": -21.1}
{"COMPOUND": "CCCCC(CC)CNC(=O)C(=O)C1C(=O)Nc2ccccc21 (stereo unspecified)", "OBSERVED VALUE": 22}
{"COMPOUND": "COc1ccc(N2C(=O)CC(SC(C)C)C2=O)cc1 (stereo unspecified)", "OBSERVED VALUE": 7.97}
{"COMPOUND": "COc1cccc(CN2CCN(Cc3ccc4cccc(F)c4n3)CC2CCO)c1 (stereo unspecified)", "OBSERVED VALUE": 13.8}
{"COMPOUND": "CCC(CC)COC(=O)C1=C(C)NC(=O)NC1c1ccc([N+](=O)[O-])cc1 (stereo unspecified)", "OBSERVED VALUE": 7.14}
